Provenance of the data: paper PMC7377239

- System: iCell cardiomyocytes (human iPSC-derived cardiomyocytes)
- protocol_notes: Intracellular Ca2+ flux / beating parameters in iCell cardiomyocytes (FLIPR tetra), 90 min or 24 h
- Format: cell-based
- recorded_conditions: Homo sapiens, Cardiomyocyte, 24 h, 1.00 µM; 0.00 µM = 100.00; read-out: cm.decay.rise.24hrs
Counter-ions that a name gives are not always drawn.
A collection of molecules and their measured activity at 1 µM
API: value field is a number in %; no unit string.

Below, 2 molecules whose answers are already recorded.
[
  {
    "molecule": "Clc1ccc(-c2ccccc2)cc1 [PCB3]",
    "target_system": "iCell cardiomyocytes (human iPSC-derived cardiomyocytes)",
    "assay_value": 104
  },
  {
    "molecule": "Oc1ccc(-c2ccc(Cl)cc2)cc1 [4'-OH PCB3]",
    "target_system": "iCell cardiomyocytes (human iPSC-derived cardiomyocytes)",
    "assay_value": 51
  }
]

// sample O=S(=O)(O)Oc1ccc(-c2cccc(Cl)c2)cc1Cl [4-yl PCB 11 sulfate] , its activity at 1 µM was 100

// sample Oc1cccc(-c2ccc(Cl)cc2)c1 [3'-OH PCB3] , its activity at 1 µM was 102

// sample O=S(=O)(O)Oc1cc(Cl)ccc1-c1ccccc1 [2-yl PCB 3 sulfate] , its activity at 1 µM was 0
